Provenance of the data: the nanobody polyreactivity screen of Harvey et al. (2022)

assay: yeast display, Sf9 membrane polyspecificity reagent, FACS + sequencing; frameworks hold sequencing errors
readout label: polyreactivity (PSR sort gate)

Recorded polyreactivity (PSR sort gate), per entry:
macromolecule_sequence=QVQLVESGGGLVQAGGSLRLSCAASGRTFIYNTMGWYRQAPGKERELFAAISSGGSTNYADSVKGRFTISRDNAKNTVYLQMNSLKPEDTAVYYCATQGLSAPFDGFVNSRFDHRGQGTQVTVSS observed_value="low polyreactivity"
macromolecule_sequence=QVQLVESGGGLVQAGGSLRLSCAASGSIFEWYAMGWYRQAPGKERELVAAINSGGSTYYADSVQGRFTISRDNAKNTVYLQMNSLKPEDTAVYYCNYDTLLQDRLGDWYDYDYWGQGTQVTVSS observed_value="low polyreactivity"
macromolecule_sequence=QVQLVESGGCLVQARGSLRLSCAASGFIFRSYAMGWYRPAPGKERELVAAISRSGGSTYYADSVKGRFTISRDNAKNTVYLQMNSLKPEDTAVYYCAAEYRIPYFFTYVYWGQGTKVTVSS observed_value="high polyreactivity"
macromolecule_sequence=QVQLLESGGGLVQSGGSLRLSCAASGFIFYSYAMGGYRQAPGKERELVAAITEDGDSTYYADSVKWRFTISRDNAKNTVYLQMNSLNPEDTAGYYCNTDLTFNGTSGAYDYWGQGTQVTVSS observed_value="low polyreactivity"
macromolecule_sequence=QVQLVESGGGLVQAGGSLRLSCAASGSTFLQNAMGWYRQAPGKEREFVAAISYTGANTYYADSVKGRFTISRDNAKNTVYLQMNSLKPEDTAVYYCNRYAKQYLSGTVPVNLDYWGQGTQVTVSS observed_value="high polyreactivity"
macromolecule_sequence=QVQLVESGGGLVQAGASLRLSCAASGRTFYQNGMGWYRQAPGKERELVAVISSGGNTDYADSVKGRFTMSRDNAKNTVYLQMNSLKPEDTAVYYCNADVRPAYTYDYWGQGTQVTVSS observed_value="low polyreactivity"
macromolecule_sequence=QVQLVESGGGLVQAGGSLRLSCAASGRTFGNNAMGWYRQAPGKERELVAAITGSGGSTYYADSVKGRFTISRDNAKNTVYLQMNSLKPEDTAVYYCAAVVYGAVRGSRYPYYYWGQGTQVTVSS observed_value="high polyreactivity"
macromolecule_sequence=QVQLVESGGGLVHPGGSLRLSCAASGSTFGCNAMGWYRQAPGKERELVSAITFSGGTTYYADSVKGRFTISRDNAKNTVYLQMNSLKPEDTAVYYCNAEWWYQYTGPFAPRGEDYLGQGTQVTVSS observed_value="low polyreactivity"
macromolecule_sequence=QVQLVESGGGLVQAGGSLRLSCADSARTFYTNAKGWYRQAPGKERELVAAITGSDGNTYYADSVKGRFTISRDNAKNTVYLQMISLKPEDTAVYYGYDYWVQGTQVTVSS observed_value="low polyreactivity"
macromolecule_sequence=QVQLVESGGGLFQAGGSLRLSSAASGSIFHPYAMGWYRQAPGKERELVAAISSSTGRTYYADYVKGRFTISRDNAKNTVYLQMNSLKPEDTAVYYCAARKKYSEFDYWGQGTQVTVSS observed_value="high polyreactivity"

Request the reported polyreactivity (PSR sort gate) associated with `QVHLVESGGGLVKAGGSLRLSCAAYGRIFSYNDMGWYRQSPGKDRELVAAISSSGGRTYYADSVKGSFTISRDNAKNTVYLQMNSMKPEDTALYYCNVLGYSYWGQGTQVTVSS` high polyreactivity

Entry `QVQLVESGGGLDQAGGSLRLSCAASGFTFDENAMGSYRQAPGINYSGASTYYADSVKGRFTISRDNAKNTVYLQMNSLKPEDTAVYYCAAEVVAQMNYWGQGTQVTVSW` please low polyreactivity

Entry `QVQLVESGVGLVQAGGSLRLSCAASGPTFRNNAMVWSRQAPGKERELVAAITSGGSTNYADSVKGRFTISRDNAKNTVYLQMNSLKPEDTAVYYCAKDFWYVTGGWSSGMDYWGQGTQVSVSS` please low polyreactivity

Entry `QEQLQESGGGLVQAGGSLRLSCAASGSIFHLHIMCRYRQAPGKERESVAAISYGTSTYYADSVKGRFTICRDNAKNTVYLQMNSPKPDDTAVYYCAALFLVSKHHHYWGEGTQVTVSS` please low polyreactivity

Entry `QVQLVESGGGLVQAGGSLRLSCAASGRIFVVYAMGWYRQAPGKESELVATISGGSTNYADSVKGRFTISRDNAKNTVYLQMNSVKPDDTAVYYCGMEYWGQGTQVTVSS` please low polyreactivity

Entry `QVQLVESGGGLVQAGGSLRLSCAASGRIFGYYAMGWYRQAPGKERELVAAISYSGGSTYYADSVKGRFTISRDNAKYTVFLQMNSLKPEDTAVYYCNKVYSIRGYWGQGTQVTVSS` please high polyreactivity

Entry `QVQLQESGGSLVQAGGSLRLSCSASGNILVLPHGLVSPGAERELVATITGGSITYYADSEKGRFTISRDNAKNTVYLQMNSLKPGDTAVYYCAVINIYHRPHPYWGQGTLVTVSS` please high polyreactivity

---

experiment: yeast display, Sf9 membrane polyspecificity reagent, FACS + sequencing; frameworks hold sequencing errors
readout label: polyreactivity (PSR sort gate)

macromolecule_sequence=QVQLVESGGGLVQAGGSLRLSCAASGYTFEYNAMGWYRQATGKEREFVATITASGDSTYYADSVKGRFTISRDNAKNTVYLQMNSLKPEDTAVYYCATEKRDVYFTAKYDYWGQGTQVTVSS observed_value="low polyreactivity"
macromolecule_sequence=QVQLVESGGGLVQAGGSLRLSCAASGYIFTGNAMGWYRQAPGKEREFVAAISWSGGSTYYADSVKGRFTISRDNAKNTVYLQMNSLKPEDTAVYDCNKYRPYGRIYHLAYGRDDWGQGTQVTVSS observed_value="high polyreactivity"
macromolecule_sequence=QVQLVESGGGLVQAGGSLRLSCAASGSIIARYAMGWYRQAPGKETELVAAINSGTSTNYADSVKGRFTISRDNAKNTVYFQMHCLKPEDTEVYYCNTQWYVDNDTYTQTDYDYWGQGTQVTVSS observed_value="low polyreactivity"
macromolecule_sequence=QVQLVESGGGLVQAGGSLRLSCAASGYIFPPNAMGWYRQAPGKDRELVAAIRRSTGSTYYADSVKGRFTISRDNAKNTVYLQMNSLKPEDTAVYYCAAYYGYITFGYTYEYWGQGSQVTVSS observed_value="high polyreactivity"
macromolecule_sequence=QVQIVESGGGLVQAGGSLRLSCAASGSTFGYYTMGWYRQAPGKERELVAAISWSGGSTYYADSVKGRFTISRDNAKNTVYLQKNSLKPEDTAVYYCAALGYTYKYYSYYWGQGTQVTVSS observed_value="high polyreactivity"

Request the reported polyreactivity (PSR sort gate) associated with `QVQLVESGGGLGQAGGSLRLSCAASGNTFYWNAMGWYRQAPGKERELVAAISTTGVSSYYADSVKGRFTISRDNAKNSVYLQMNSLKPEDTAVYYCAGEIIGYHTIYDYWGQGTQVTVSS` low polyreactivity

Entry `QVQLVESGGGLVQAGGSLRLSCAASGSTFGINDMGRYRQAPGKERELVASITRRGGTTYYADSVKGRFTISRDNAKNTVYLHMNSLKPEDTAVYYCNKTYRYGTPLYDYWGQGTQVTVSS` please high polyreactivity

Entry `QVQLVESGARLVQAGGSLRLSCAASGRTFSTYTMGWYRQAPGKERELVAAITSSGGGTYYADSVKGRFTISRDTAKNTVFLQMNSLKPEDTAVYYCATVRTYRPPVRRGYWGQGTQVTVSS` please high polyreactivity

Entry `QVQLVESGGGLVQAGGSLRLSCAASGRTIRWNAMGWYRQAPGKERELVAAITSRGGSTYYADSVKGRFTISRDNAKNTVYLQMISLKPEDTAVSYCAKQPKPPPVTGYDYSGQGTQVTVSS` please high polyreactivity

Entry `QVQLVESGGGLVQAGGSLRLSCAASGRIFSHYAMGWYRQAPGKERELVAAITSDGSTNYADSVKGRFTISRDNAKNTVYLQMNSLKPEHTAVYYCAKYVHIPYYYYLFGSYDYWGQGTQLTVSS` please low polyreactivity

Entry `QVQLVESGGGLVHAGGSLRLSCAASGSIFTIYAMGWYRQAPGKERELVAAISDRGTRTYYADSVKGRFTISRDNAKNTVYLQMNSLKPEDTAVYYCATDALYTYGYDYWGQGTQVTVSS` please low polyreactivity

---

experiment: yeast display, Sf9 membrane polyspecificity reagent, FACS + sequencing; frameworks hold sequencing errors
readout label: polyreactivity (PSR sort gate)

macromolecule_sequence=QVQLVESGGGLVQAGGSLRLSCAASGVTFNYNAMGWYRQAPGKERELVATITGSTYYADSVKGRFTISRDNAKNTVYLQMNSLKPEDTAVYYCTADASLVLAEYDYWGQGTQVTVSS readout_label="polyreactivity (PSR sort gate)" observed_value="low polyreactivity"
macromolecule_sequence=QFQLVESGGGLVQAGGSLRLSCAASGIIFAQYTMGWYRQAPGKDRELGAAINRNGGSTYYADSVKGRFTISRDNAKNTVYLQMNSLKPEDTAVYYCIADALGFRYDYWGQGTQVTVSS readout_label="polyreactivity (PSR sort gate)" observed_value="low polyreactivity"
